- Test system: PC-3 cells
- experimental.details: Anti-proliferative toxicity against prostate cancer cell line PC-3 (CCK8)
- Type: cell-based, human
- condition.info: Homo sapiens, 72 h, 3 days
- Protocol: Example 82: Detection of Anti-Proliferative Toxicity Against Prostate Cancer Cell Lines Vcap, 22Rv1, and PC-3 […] After the above-treated cells were cultured for 3 days, 10 μL of the CCK8 solution (DOJINDO, Cat. No. PF725) was added to each well. The plate was incubated in an incubator at 37° C. for 1-4 h and then detected on a microplate reader for the reading at 450 nm.
pIC50: −log10 of the molar value.
observable: pIC50

compound: C[C@]12C=CC(=O)N[C@@H]1CC[C@@H]1[C@@H]2CC[C@]2(C)[C@@H](C(=O)Nc3ccc(OCCCCCCCCNc4ccc5c(c4)C(=O)N(C4CCC(=O)NC4=O)C5=O)cc3)CC[C@@H]12 (stereo partly drawn) [C26]
system.tested: PC-3 cells
pIC50: < 6.00
//
compound: CC(C)(C)C(=O)OCN1C(=O)CCC(N2C(=O)c3cccc(NCCCOc4cccc(NC(=O)[C@H]5CC[C@H]6[C@@H]7CC[C@H]8NC(=O)C=C[C@]8(C)[C@H]7CC[C@]56C)c4)c3C2=O)C1=O (stereo partly drawn) [C49]
system.tested: PC-3 cells
pIC50: < 6.00

Which pIC50 value is on record for C[C@]12C=CC(=O)N[C@@H]1CC[C@@H]1[C@@H]2CC[C@]2(C)[C@@H](C(=O)Nc3cccc(OCCCCCCNc4ccc5c(c4)C(=O)N(C4CCC(=O)NC4=O)C5=O)c3)CC[C@@H]12 (stereo partly drawn) [C36] ?
< 6.00

Which pIC50 value is on record for C[C@]12C=CC(=O)N[C@@H]1CC[C@@H]1[C@@H]2CC[C@]2(C)[C@@H](C(=O)Nc3cccc(N[C@@H]4CCC[C@@H](Nc5cccc6c5C(=O)N([C@@H]5CCC(=O)NC5=O)C6=O)C4)c3)CC[C@@H]12 [C64] ?
8.00 to 10.00

Which pIC50 value is on record for C[C@]12C=CC(=O)N[C@@H]1CC[C@@H]1[C@@H]2CC[C@]2(C)[C@@H](C(=O)Nc3cccc(N[C@@H]4CNC[C@@H](Nc5cccc6c5C(=O)N(C5CCC(=O)NC5=O)C6=O)C4)c3)CC[C@@H]12 (stereo partly drawn) [C76] ?
6.00 to 8.00

Which pIC50 value is on record for C[C@]12C=CC(=O)N[C@@H]1CC[C@@H]1[C@@H]2CC[C@]2(C)[C@@H](C(=O)Nc3ccc(OCCCCCCCNc4cccc5c4C(=O)N(C4CCC(=O)NC4=O)C5=O)cc3)CC[C@@H]12 (stereo partly drawn) [C23] ?
< 6.00

Which pIC50 value is on record for C[C@]12C=CC(=O)N[C@@H]1CC[C@@H]1[C@@H]2CC[C@]2(C)[C@@H](C(=O)NCCCCCCNc3cccc4c3C(=O)N(C3CCC(=O)NC3=O)C4=O)CC[C@@H]12 (stereo partly drawn) [C9] ?
< 6.00

Which pIC50 value is on record for C[C@]12C=CC(=O)N[C@@H]1CC[C@@H]1[C@@H]2CC[C@]2(C)[C@@H](C(=O)Nc3ccc(OCCCNc4ccc5c(c4)C(=O)N(C4CCC(=O)NC4=O)C5=O)cc3)CC[C@@H]12 (stereo partly drawn) [C18] ?
< 6.00

###

- System: VCaP cells
- experimental.details: Anti-proliferative toxicity against prostate cancer cell line Vcap (CCK8)
- Assay type: cell-based, human
- condition.info: Homo sapiens, 72 h, 3 days, CCK8
- Procedure: Example 82: Detection of Anti-Proliferative Toxicity Against Prostate Cancer Cell Lines Vcap, 22Rv1, and PC-3 […] After the above-treated cells were cultured for 3 days, 10 μL of the CCK8 solution (DOJINDO, Cat. No. PF725) was added to each well. The plate was incubated in an incubator at 37° C. for 1-4 h and then detected on a microplate reader for the reading at 450 nm.
observable: IC50

Please review the entries below; each comes with its answer.
molecule: C[C@]12C=CC(=O)N[C@@H]1CC[C@@H]1[C@@H]2CC[C@]2(C)[C@@H](C(=O)Nc3ccc(OCCCCCCCNc4cccc5c4C(=O)N(C4CCC(=O)NC4=O)C5=O)cc3)CC[C@@H]12 (stereo partly drawn)
endpoint.value: > 1000 nM
//
molecule: C[C@]12C=CC(=O)N[C@@H]1CC[C@@H]1[C@@H]2CC[C@]2(C)[C@@H](C(=O)Nc3cccc(N[C@@H]4CCC[C@@H](Nc5ccc(F)c6c5C(=O)N(C5CCC(=O)NC5=O)C6=O)C4)c3)CC[C@@H]12 (stereo partly drawn)
endpoint.value: 0.1 to 10 nM
//
molecule: C[C@]12C=CC(=O)N[C@@H]1CC[C@@H]1[C@@H]2CC[C@]2(C)[C@@H](C(=O)Nc3cc(OCCCNc4cccc5c4C(=O)N(C4CCC(=O)NC4=O)C5=O)ccn3)CC[C@@H]12 (stereo partly drawn)
endpoint.value: > 1000 nM
//
molecule: C[C@]12C=CC(=O)N[C@@H]1CC[C@@H]1[C@@H]2CC[C@]2(C)[C@@H](C(=O)Nc3cccc(N[C@H]4CCC[C@@H](Nc5cccc6c5C(=O)N(C5CCC(=O)NC5=O)C6=O)C4)c3)CC[C@@H]12 (stereo partly drawn)
endpoint.value: > 1000 nM
//
molecule: C[C@]12C=CC(=O)N[C@@H]1CC[C@@H]1[C@@H]2CC[C@]2(C)[C@@H](C(=O)Nc3ccc(OCCCCCCNc4ccc5c(c4)C(=O)N(C4CCC(=O)NC4=O)C5=O)cc3)CC[C@@H]12 (stereo partly drawn)
endpoint.value: > 1000 nM

Please find the next molecule below.
Which IC50 value is on record for CN(c1cccc(NC(=O)[C@H]2CC[C@H]3[C@@H]4CC[C@H]5NC(=O)C=C[C@]5(C)[C@H]4CC[C@]23C)c1)[C@@H]1CCC[C@@H](Nc2cccc3c2C(=O)N(C2CCC(=O)NC2=O)C3=O)C1 (stereo partly drawn) ?
0.1 to 10 nM

###

Reported IC50 values for a set of compounds
- Test system: PC-3 cells
- experimental.details: Anti-proliferative toxicity against prostate cancer cell line PC-3 (CCK8)
- Format: cell-based, human
- condition.info: Homo sapiens, 72 h, 3 days
- Experimental: Example 82: Detection of Anti-Proliferative Toxicity Against Prostate Cancer Cell Lines Vcap, 22Rv1, and PC-3 […] After the above-treated cells were cultured for 3 days, 10 μL of the CCK8 solution (DOJINDO, Cat. No. PF725) was added to each well. The plate was incubated in an incubator at 37° C. for 1-4 h and then detected on a microplate reader for the reading at 450 nm.

compound: C[C@]12C=CC(=O)N[C@@H]1CC[C@@H]1[C@@H]2CC[C@]2(C)[C@@H](C(=O)NCCNc3ccc4c(c3)C(=O)N(C3CCC(=O)NC3=O)C4=O)CC[C@@H]12 (some centres unmarked)
observable: IC50
endpoint.value: > 1 µM

Which IC50 value is on record for C[C@]12C=CC(=O)N[C@@H]1CC[C@@H]1[C@@H]2CC[C@]2(C)[C@@H](C(=O)NCCCCCNc3ccc4c(c3)C(=O)N(C3CCC(=O)NC3=O)C4=O)CC[C@@H]12 (some centres unmarked) ?
> 1 µM

Which IC50 value is on record for CC1[C@H](Nc2cccc(NC(=O)[C@H]3CC[C@H]4[C@@H]5CC[C@H]6NC(=O)C=C[C@]6(C)[C@H]5CC[C@]34C)c2)CCC[C@H]1Nc1cccc2c1C(=O)N(C1CCC(=O)NC1=O)C2=O (some centres unmarked) ?
0.01 to 1 µM

Which IC50 value is on record for C[C@]12C=CC(=O)N[C@@H]1CC[C@@H]1[C@@H]2CC[C@]2(C)[C@@H](C(=O)Nc3ccc(OCCCNc4cccc5c4C(=O)N(C4CCC(=O)NC4=O)C5=O)cc3)CC[C@@H]12 (some centres unmarked) ?
> 1 µM

Which IC50 value is on record for C[C@]12C=CC(=O)N[C@@H]1CC[C@@H]1[C@@H]2CC[C@]2(C)[C@@H](C(=O)Nc3cccc(OCCCCNc4ccc5c(c4)C(=O)N(C4CCC(=O)NC4=O)C5=O)c3)CC[C@@H]12 (some centres unmarked) ?
> 1 µM

###

Reported IC50 values for a set of molecules
- System: PC-3 cells
- experimental.details: Anti-proliferative toxicity against prostate cancer cell line PC-3 (CCK8)
- Type: cell-based, human
- condition.info: Homo sapiens, 72 h, 3 days

molecule: [2H][C@@]1(Nc2cccc(NC(=O)[C@H]3CC[C@H]4[C@@H]5CC[C@H]6NC(=O)C=C[C@]6(C)[C@H]5CC[C@]34C)c2)CCC[C@@]([2H])(Nc2cccc3c2C(=O)N(C2CCC(=O)NC2=O)C3=O)C1 (some centres unmarked)
system.tested: PC-3 cells
endpoint.value: 0.1 to 10 nM

Which IC50 value is on record for C[C@]12C=CC(=O)N[C@@H]1CC[C@@H]1[C@@H]2CC[C@]2(C)[C@@H](C(=O)Nc3cccc(N[C@H]4C[C@H](Nc5cccc6c5C(=O)N(C5CCC(=O)NC5=O)C6=O)CC(F)(F)C4)c3)CC[C@@H]12 (some centres unmarked) ?
10 to 1000 nM

Source listed as patent US20250213701A1.
